Species: Ovis aries
assay-remarks: Inhibition of sheep brain tubulin polymerization at 100 uM by DAPI staining-based fluorimetric method
readout-name: inhibition (%)
Form entry: value (%) — number only.

// inhibition lookup, compound = COc1cc([C@@H]2c3cc4c(cc3C[C@H]3COC(=O)[C@@H]32)OCO4)cc(OC)c1OC , result: 100

// inhibition lookup, compound = O=C(c1ccc(F)c(Cl)c1)N1c2ccccc2Sc2ccccc21 , result: 42

// inhibition lookup, compound = O=C(c1ccc(Cl)cc1Cl)N1c2ccccc2Sc2ccccc21 , result: 44

Origin of measurements: ChEMBL document CHEMBL3792297
